Experiment: molar heat capacity at constant pressure
Recorded Conditions: 303.15 K; 101.33 kPa; Liquid; Large sample (1 g) DSC
Endpoint Label: molar heat capacity at constant pressure (J/K/mol)

Compound | molar heat capacity at constant pressure / J/K/mol
CCCC[P+](CCCC)(CCCC)CCCC.N[C@@H](CS)C(=O)[O-] [tetrabutylphosphonium L-cysteinate] | 926.6
CC(C)[C@H](N)C(=O)[O-].CCCC[P+](CCCC)(CCCC)CCCC [tetrabutylphosphonium L-valinate] | 751.6
CCCC[P+](CCCC)(CCCC)CCCC.NCCCC[C@H](N)C(=O)[O-] [tetrabutylphosphonium L-lysinate] | 1004.3
CCCC[N+](C)(CCCC)CCCC.C[C@@H](O)[C@H](N)C(=O)[O-] [N,N-dibutyl-N-methyl-1-butanaminium L-threoninate] | 757.1
CCCC[P+](CCCC)(CCCC)CCCC.C[C@@H](O)[C@H](N)C(=O)[O-] [tetrabutylphosphonium L-threoninate] | 970.7
CCCC[P+](CCCC)(CCCC)CCCC.N[C@@H](CO)C(=O)[O-] [tetrabutylphosphonium L-serinate] | 755.1
CCCC[N+](C)(CCCC)CCCC.NCCCC[C@H](N)C(=O)[O-] [N,N-dibutyl-N-methyl-1-butanaminium L-lysinate] | 830.8

----------
Recorded Conditions: 333.15 K; 101.33 kPa; Liquid
Endpoint Label: viscosity (mPa·s)

Compound | Measured
CC(C)[C@H](N)C(=O)[O-].CCCC[P+](CCCC)(CCCC)CCCC [tetrabutylphosphonium L-valinate] | 70.8
CCCC[P+](CCCC)(CCCC)CCCC.O=C([O-])[C@@H]1CCCN1 [tetrabutylphosphonium L-prolinate] | 133.1
CCCC[N+](C)(CCCC)CCCC.C[C@@H](O)[C@H](N)C(=O)[O-] [N,N-dibutyl-N-methyl-1-butanaminium L-threoninate] | 377.6

(a) CCCC[P+](CCCC)(CCCC)CCCC.NCCCC[C@H](N)C(=O)[O-] [tetrabutylphosphonium L-lysinate]
(b) CCCC[N+](C)(CCCC)CCCC.N[C@@H](CO)C(=O)[O-] [N,N-dibutyl-N-methylbutanaminium L-serinate]
Task item: Among a and b , which shows a numerically higher viscosity result? Identify your selection by its label.
Reply: b

----------
Recorded Conditions: 323.15 K; 101.33 kPa; Liquid
Endpoint Label: viscosity (mPa·s)

Compound | Endpoint Label | Value Units | Measured
CCCC[P+](CCCC)(CCCC)CCCC.NCCS(=O)(=O)[O-] [tetrabutylphosphonium 2-aminoethanesulfonate] | viscosity | mPa·s | 186.2
CCCC[P+](CCCC)(CCCC)CCCC.C[C@@H](O)[C@H](N)C(=O)[O-] [tetrabutylphosphonium L-threoninate] | viscosity | mPa·s | 143.2
CC(C)[C@H](N)C(=O)[O-].CCCC[P+](CCCC)(CCCC)CCCC [tetrabutylphosphonium L-valinate] | viscosity | mPa·s | 120

(P) CCCC[N+](C)(CCCC)CCCC.N[C@@H](CO)C(=O)[O-] [N,N-dibutyl-N-methylbutanaminium L-serinate]
(Q) CCCC[P+](CCCC)(CCCC)CCCC.N[C@@H](CO)C(=O)[O-] [tetrabutylphosphonium L-serinate]
(R) CCCC[N+](C)(CCCC)CCCC.NCCCC[C@H](N)C(=O)[O-] [N,N-dibutyl-N-methyl-1-butanaminium L-lysinate]
Task item: Put these in order: smallest viscosity first, largest last. Respond with the label ranking, as requested.
Reply: Q, R, P
(Q: 209.4 mPa·s, R: 368.6 mPa·s, P: 890.7 mPa·s)
